- Tested on: Fusarium graminearum
- test_summary: Antifungal activity against Fusarium graminearum measured after 24 to 48 hrs by turbidimetry
- Format: functional
- setup_conditions: time 24-48 hrs
# MIC annotations
reported_endpoint: MIC

In [3]: df
Out[3]:
                                   compound    observed
0  CC1(C)CC[C@]2(C)CC[C@]3(C)c4ccc5c(c4CC[C@@]3(C)[C@@H]2C1)C=CC(=O)C5(C)C      123 µM
1    COC(=O)Nc1nc2ccccc2[nH]1 [CARBENDAZIM]     8.18 µM
2  C=C(C)C1=CC[C@H]2[C@@](C)(CC[C@@]3(C)[C@@H]4CC(C)(C)CC[C@]4(C)CC[C@]23C)[C@@H]1CCC#N  > 50 µg/mL
3  CC1(C)CC[C@]2(C)CC[C@]3(C)[C@@H](CC=O)[C@](C)([C@@H]4CC[C@H](O)C(C)(C)C4=O)CC[C@@]3(C)[C@@H]2C1     54.5 µM
4  CC1(C)CC[C@]2(C)CC[C@]3(C)[C@H]4CC=C5[C@@H](CC(Br)(Br)C(=O)C5(C)C)[C@]4(C)CC[C@@]3(C)[C@@H]2C1  > 50 µg/mL
5  CC1(C)CC[C@]2(C)CC[C@]3(C)[C@H]4CC=C5C(=CC(=O)C(=O)C5(C)C)[C@]4(C)CC[C@@]3(C)[C@@H]2C1  > 50 µg/mL
6  CC1(C)CC[C@]2(C)CC[C@]3(C)[C@H]4CC=C5C(C)(C)C(=O)CC[C@@]5(O)[C@]4(C)CC[C@@]3(C)[C@@H]2C1  > 50 µg/mL

====

Measured MIC values are reported for all entries that follow.
- System: Fusarium graminearum
- test_summary: Antifungal activity against Fusarium graminearum measured after 24 to 48 hrs by turbidimetry
- Assay type: functional
- setup_conditions: time 24-48 hrs
reported_endpoint: MIC

In [3]: df
Out[3]:
                              smiles_record          study_target  reported_endpoint    observed
0  CC1(C)CC[C@]2(C)CC[C@]3(C)[C@H]4CC=C5C(=CC6=NC(N)=N[C@]6(O)C5(C)C)[C@]4(C)CC[C@@]3(C)[C@@H]2C1  Fusarium graminearum                MIC  > 50 µg/mL
1  CC1(C)CC[C@]2(C)CC[C@]3(C)[C@H]4C=CC5=C(C=C(Br)C(=O)C5(C)C)[C@]4(C)CC[C@@]3(C)[C@@H]2C1  Fusarium graminearum                MIC  > 50 µg/mL
2  CC1(C)CC[C@]2(C)CC[C@]3(C)[C@H]4CC=C5[C@@H](Cc6c([nH]c7ccccc67)C5(C)C)[C@]4(C)CC[C@@]3(C)[C@@H]2C1  Fusarium graminearum                MIC  > 50 µg/mL
